Values compiled from PubChem BioAssay (NCATS).

Tgt: Nucleoprotein (Lymphocytic choriomeningitis virus (strain Armstrong)) (UniProt P09992)
Sequence (P09992 whole entry, looked up): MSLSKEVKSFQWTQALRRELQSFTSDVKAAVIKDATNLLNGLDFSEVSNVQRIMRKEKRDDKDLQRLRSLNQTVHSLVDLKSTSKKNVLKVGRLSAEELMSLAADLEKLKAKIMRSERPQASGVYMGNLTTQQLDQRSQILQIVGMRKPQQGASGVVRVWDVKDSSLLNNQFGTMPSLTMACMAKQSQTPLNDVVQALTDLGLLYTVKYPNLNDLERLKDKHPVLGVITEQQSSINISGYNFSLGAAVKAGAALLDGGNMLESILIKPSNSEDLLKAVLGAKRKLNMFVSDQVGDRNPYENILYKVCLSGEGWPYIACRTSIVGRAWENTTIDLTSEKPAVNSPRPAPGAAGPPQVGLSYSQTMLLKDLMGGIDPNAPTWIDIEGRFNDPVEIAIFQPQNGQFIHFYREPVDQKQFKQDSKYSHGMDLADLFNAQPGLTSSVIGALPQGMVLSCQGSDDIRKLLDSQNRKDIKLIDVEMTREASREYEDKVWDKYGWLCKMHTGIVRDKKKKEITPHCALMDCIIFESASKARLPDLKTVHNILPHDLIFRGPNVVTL
Experiment Notes: qHTS for Inhibitors of the Functional Ribonucleoprotein Complex (vRNP) of Lymphocytic Choriomeningitis Arenaviruses (LCMV): LCMV Primary Screen - GLuc reporter signal (AID 1347086); further: nearly all actives have a fitted effect of over 70% in size
Condition Label: LCMV minigenome vRNP cell assay, Gaussia luciferase reporter; series mostly up to 57.5 µM
Results filed as inconclusive are left out. Calls of active or inactive are those of the source. The call rests on the fitted dose curve.
Measured Quantity: outcome

Answered examples (5):
                                  compound  measured_quantity  assay_result
0  CC(C)NP(=O)(NC(C)C)OP(=O)(NC(C)C)NC(C)C            outcome      inactive
1                  Cc1cc([C@@H]2CCCN2C)on1            outcome      inactive
2            C=CCN(C1=NCCN1)c1c(Cl)cccc1Cl            outcome      inactive
3            CCCN1CCC[C@@H](c2cccc(O)c2)C1            outcome      inactive
4                       CP(=O)(O)C1=CCNCC1            outcome      inactive

Look at this compound and give its reported outcome. `CCCn1c(C)c(C(=O)c2ccc3ccccc3c2)c2ccccc21`
inactive

Look at this compound and give its reported outcome. `C[N+]1(C)CCN(c2ccccc2)CC1`
inactive

Look at this compound and give its reported outcome. CC(N)Cc1c[nH]c2ccc(OCc3cccs3)cc12 (stereo not drawn)
inactive

Look at this compound and give its reported outcome. `CN(N=O)c1cc(O)ccc1O`
inactive
